test system: ABCA1 gene; assay: Quantitative analysis of ABCA1 gene regulation in THP-1 cells (real-time PCR); format: cell-based, human; conditions: Homo sapiens, THP-1, 18 h, read-out: EC50 ABCA1
Listed compounds paired with reported EC50

| cpd.smiles | unit.string | EC50 |
| --- | --- | --- |
| CS(=O)(=O)c1cc(F)cc(Oc2ccc(Cl)c(-n3cnc4c(C(F)(F)F)cccc43)c2)c1 | nM | 1210 |
| CS(=O)(=O)c1ccc(Oc2ccc(Cl)c(-n3cnc4c(C(F)(F)F)cccc43)c2)cc1 | nM | 110 |
| Cc1nc2c(C(F)(F)F)cccc2n1-c1cccc(Oc2cccc(S(=O)(=O)CCCS(C)(=O)=O)c2)c1 | nM | 155 |
| Cc1nc2c(C(F)(F)F)cccc2n1-c1cccc(-c2cccc(S(C)(=O)=O)c2)c1 | nM | 215 |
| CCS(=O)(=O)c1cccc(Oc2ccc(-n3c(C(F)(F)F)nc4c(C(F)(F)F)cccc43)cc2)c1 | nM | 290 |
| Cc1nc2c(Cl)cccc2n1-c1cccc(Oc2ccc(S(C)(=O)=O)cc2)c1 | nM | 1120 |

----------
Listed compounds paired with reported IC50
Target sequence: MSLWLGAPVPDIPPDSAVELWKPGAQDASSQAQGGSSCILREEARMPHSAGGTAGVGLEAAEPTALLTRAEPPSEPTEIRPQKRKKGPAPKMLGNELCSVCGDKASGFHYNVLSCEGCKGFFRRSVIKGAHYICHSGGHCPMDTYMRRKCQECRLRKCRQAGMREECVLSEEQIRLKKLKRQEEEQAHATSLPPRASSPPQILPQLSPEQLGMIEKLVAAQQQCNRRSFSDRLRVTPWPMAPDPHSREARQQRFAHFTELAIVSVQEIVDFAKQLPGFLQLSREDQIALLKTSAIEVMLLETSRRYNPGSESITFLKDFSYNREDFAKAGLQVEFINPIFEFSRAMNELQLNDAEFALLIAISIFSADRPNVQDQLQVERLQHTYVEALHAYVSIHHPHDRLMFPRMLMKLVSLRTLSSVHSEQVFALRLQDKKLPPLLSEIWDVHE
experimental.readout: IC50 (µM)

| cpd.smiles | unit.string | obs.value |
| --- | --- | --- |
| CCc1nc2c(C(F)(F)F)cccc2n1-c1ccc(Oc2cc(F)cc(S(C)(=O)=O)c2)cc1 | µM | 0.28 |
| Cc1nc2c(C(F)(F)F)cccc2n1-c1cccc(Oc2cccc(S(=O)(=O)CCCS(C)(=O)=O)c2)c1 | µM | 0.319 |
| Cc1nc2c(Cl)cccc2n1-c1cccc(Oc2ccc(S(C)(=O)=O)cc2F)c1 | µM | 3 |
| Cc1nc2c(Cl)cccc2n1-c1cc(Oc2ccc(S(C)(=O)=O)cc2)ccc1Cl | µM | 3 |

----------
Target chain: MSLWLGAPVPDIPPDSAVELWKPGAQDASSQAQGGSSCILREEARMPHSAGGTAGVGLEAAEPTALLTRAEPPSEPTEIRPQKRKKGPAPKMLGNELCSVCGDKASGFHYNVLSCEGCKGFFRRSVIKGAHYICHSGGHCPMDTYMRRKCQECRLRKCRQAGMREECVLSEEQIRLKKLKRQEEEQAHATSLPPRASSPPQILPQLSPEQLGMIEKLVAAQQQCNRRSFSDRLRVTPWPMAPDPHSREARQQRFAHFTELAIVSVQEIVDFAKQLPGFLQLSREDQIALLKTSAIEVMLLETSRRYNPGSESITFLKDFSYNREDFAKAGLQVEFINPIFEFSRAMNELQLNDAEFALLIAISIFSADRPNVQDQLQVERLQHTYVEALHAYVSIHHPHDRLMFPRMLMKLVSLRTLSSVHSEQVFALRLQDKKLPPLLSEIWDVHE
experimental.readout: log10(IC50) (log10 of the value in nM)

| cpd.smiles | obs.value |
| --- | --- |
| CS(=O)(=O)c1cc(F)cc(Oc2ccc(Cl)c(-n3cnc4c(C(F)(F)F)cccc43)c2)c1 | 2.01 |
| CCS(=O)(=O)c1cc(F)cc(Oc2cccc(-n3c(C)nc4c(Cl)cccc43)c2)c1 | 1.49 |
| Cc1nc2c(C(F)(F)F)cccc2n1-c1cccc(OCc2cccc(S(C)(=O)=O)c2)c1 | 3.29 |
| Cc1nc2c(C(F)(F)F)cccc2n1-c1ccc(Oc2cc(F)cc(S(C)(=O)=O)c2)cc1Cl | 3.43 |
| CCS(=O)(=O)c1cccc(Oc2ccc(-n3cnc4c(C(F)(F)F)cccc43)c(C)c2)c1 | 3.79 |
| CCc1nc2c(C(F)(F)F)cccc2n1-c1ccc(Oc2ccc(C#N)c(S(C)(=O)=O)c2)cc1 | 4.18 |
| Cc1nc2c(C(F)(F)F)cccc2n1-c1ccc(Oc2cc(F)cc(S(C)(=O)=O)c2)cc1 | 2.42 |
| COc1ccc(-n2c(C(F)(F)c3ccccc3)nc3c(C(F)(F)F)cccc32)cc1 | 2.80 |
| Cc1nc2c(Cl)cccc2n1-c1cccc(Oc2cccc(S(=O)(=O)CCC(C)C)c2)c1 | 2.41 |
| CCS(=O)(=O)c1ccc(Oc2ccc(Cl)c(-n3c(C)nc4c(Cl)cccc43)c2)cc1 | 2.91 |
| CCCS(=O)(=O)c1cccc(Oc2ccc(Cl)c(-n3c(C)nc4c(Cl)cccc43)c2)c1 | 3.40 |
| Cc1nc2c(C(F)(F)F)cccc2n1-c1cccc(Oc2cccc(S(=O)(=O)CCCN)c2)c1 | 3.17 |
| Cc1nc2c(Cl)cccc2n1-c1cccc(Oc2ccc(S(C)(=O)=O)cc2)c1 | 1.81 |
| CCS(=O)(=O)c1cccc(Oc2ccc(-n3c(C)nc4c(C(F)(F)F)cccc43)cc2)c1 | 0.86 |
| CCS(=O)(=O)c1cccc(Oc2ccc(-n3c(C(F)(F)F)nc4c(C(F)(F)F)cccc43)cc2)c1 | 3.04 |

----------
Data export: IC50 values recorded with human LXRβ (Homo sapiens).
Sequence (P55055 whole entry): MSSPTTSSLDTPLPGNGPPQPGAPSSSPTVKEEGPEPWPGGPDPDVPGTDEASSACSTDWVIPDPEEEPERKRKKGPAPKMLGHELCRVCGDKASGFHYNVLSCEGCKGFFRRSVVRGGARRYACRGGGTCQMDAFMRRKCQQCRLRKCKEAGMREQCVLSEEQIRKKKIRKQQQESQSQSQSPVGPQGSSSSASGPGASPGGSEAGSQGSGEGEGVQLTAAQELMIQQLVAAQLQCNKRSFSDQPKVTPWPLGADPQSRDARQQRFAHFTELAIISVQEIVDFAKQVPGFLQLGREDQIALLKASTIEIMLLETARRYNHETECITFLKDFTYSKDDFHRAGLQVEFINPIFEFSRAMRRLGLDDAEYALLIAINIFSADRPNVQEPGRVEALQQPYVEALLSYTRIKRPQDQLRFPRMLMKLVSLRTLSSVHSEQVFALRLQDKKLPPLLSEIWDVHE

| cpd.smiles | unit.string | IC50 |
| --- | --- | --- |
| Cc1nc2c(C(F)(F)F)cccc2n1-c1cccc(Oc2cccc(S(=O)(=O)CCCN)c2)c1 | µM | 0.041 |
| CCCc1nc2c(C(F)(F)F)cccc2n1-c1cccc(Oc2cccc(S(C)(=O)=O)c2)c1 | µM | 0.0009 |
| Cc1cc(Oc2cccc(S(=O)(=O)C(C)C)c2)ccc1-n1c(C)nc2c(C(F)(F)F)cccc21 | µM | 0.061 |
| CS(=O)(=O)c1cccc(Oc2cccc(-n3c(C(F)F)nc4c(C(F)(F)F)cccc43)c2)c1 | µM | 0.002 |
| CS(=O)(=O)c1cc(F)cc(Oc2ccc(Cl)c(-n3cnc4c(C(F)(F)F)cccc43)c2)c1 | µM | 0.0049 |
| CCc1nc2c(C(F)(F)F)cccc2n1-c1ccc(Oc2cccc(S(=O)(=O)CC)c2)cc1 | µM | 1.23 |
| CCS(=O)(=O)c1cccc(Oc2ccc(-n3c(C)nc4c(C(F)(F)F)cccc43)cc2)c1 | µM | 0.0013 |
| Cc1cc(Oc2ccc(S(C)(=O)=O)cc2)ccc1-n1c(C)nc2c(C(F)(F)F)cccc21 | µM | 1.31 |
| CC(C)S(=O)(=O)c1cccc(Oc2ccc(-n3c(C(F)(F)F)nc4c(C(F)(F)F)cccc43)cc2)c1 | µM | 0.047 |
| Cc1nc2c(C(F)(F)F)cccc2n1-c1cccc(OCc2cccc(S(C)(=O)=O)c2)c1 | µM | 0.12 |
| CCS(=O)(=O)c1cccc(Oc2ccc(-n3c(C)nc4c(C(F)(F)F)cccc43)c(C)c2)c1 | µM | 0.122 |
